// provenance: ChEMBL document CHEMBL5050861

Assay: Kinetic aqueous solubility of the compound
Format: physicochemical
Conditions: buffer; read-out: Kinetic_solubility
reported-metric: solubility kinetic

These recorded examples may help you get a feel for the data.
CC1=C(C(=O)Nc2ccc(C(N)=O)cc2)C(c2ccccc2Cl)N=C(Nc2nc3ccccc3o2)N1 (stereo not given) = < 1 µg/mL
O/N=C1\CCCC2=C1C(c1ccccc1Cl)N=C(Nc1nc3ccccc3o1)N2 (stereo not given) = < 1 µg/mL
CC1=C(C(=O)Nc2ccc(Br)cc2)C(c2ccccc2Cl)N=C(Nc2nc3ccccc3o2)N1 (stereo not given) = < 1 µg/mL
COc1ccc(C(=O)O)cc1NC(=O)C1=C(C)NC(Nc2nc3ccc(F)cc3o2)=NC1c1ccccc1Cl (stereo not given) = 53.3 µg/mL
COC(=O)c1ccnc(NC(=O)C2=C(C)NC(Nc3nc4ccccc4o3)=N[C@@H]2c2ccccc2Cl)c1 = < 1 µg/mL
CC1=C(C(=O)Nc2cc(-c3nn[nH]n3)ccn2)C(c2ccc(C)cc2Cl)N=C(Nc2nc3ccc(F)cc3o2)N1 (stereo not given) = < 1 µg/mL
CC1=C(C(=O)Nc2cc(C(=O)O)ccn2)C(c2ccc(-c3ccc(C(F)(F)F)nc3)cc2Cl)N=C(Nc2nc3ccc(F)cc3o2)N1 (stereo not given) = 28.6 µg/mL
CC1=C(C(=O)Nc2nnc(-c3cccnc3)s2)C(c2ccccc2Cl)N=C(Nc2nc3ccc(C)cc3o2)N1 (stereo not given) = < 1 µg/mL
COc1ccc(C2N=C(Nc3nc4cccc(N)c4o3)NC(C)=C2C(=O)Nc2cc(C(=O)O)ccn2)c(Cl)c1 (racemic) = > 81 µg/mL

Next:
In: Record request: solubility kinetic value, item CC1=C(C(=O)Nc2cc(C(=O)O)ccn2)C(c2cccc(C(F)(F)F)c2Cl)N=C(Nc2nc3ccc(F)cc3o2)N1 (stereo not given)
Out: 70.1 µg/mL

* * *

Record form. Attribute: half-life. Fill in for each entry.
Assay: Stability of compound in rat microsomes assessed as half-life
Type: ADME, Microsome

These recorded examples may help you get a feel for the data.
CC1=C(C(=O)Nc2cc(C(=O)O)ccn2)[C@H](c2ccc(C)cc2Cl)N=C(Nc2nc3ccc(F)cc3o2)N1 = > 30 min
CC1=C(C(=O)Nc2cc(C(=O)O)ccn2)C(c2cccc(Cl)c2Cl)N=C(Nc2nc3ccc(F)cc3o2)N1 (centres undefined) = > 30 min
CC1=C(C(=O)Nc2cc(C(=O)O)ccn2)C(c2ccccc2Cl)N=C(Nc2nc3cc(Cl)ccc3o2)N1 (centres undefined) = > 30 min
CC1=C(C(=O)Nc2nncs2)C2(CCSCC2)N=C(Nc2nc3ccccc3o2)N1 = > 30 min
CC1=C(C(=O)NCCN(C)C)C(c2ccccc2Cl)N=C(Nc2nc3ccccc3o2)N1 (centres undefined) = > 30 min

Hi there! I need half-life for each item below, if you can.
1. CC1=C(C(=O)Nc2cc(C#N)ccn2)C(c2ccccc2Cl)N=C(Nc2nc3ccc(F)cc3o2)N1 (centres undefined)
2. CC1=C(C(=O)NCc2ccc(CO)cc2)C(c2ccccc2Cl)N=C(Nc2nc3ccccc3o2)N1 (centres undefined)
3. CC1=C(C(=O)Nc2cccc(C(=O)O)c2)C(c2ccccc2Cl)N=C(Nc2nc3ccccc3o2)N1 (centres undefined)
4. CC1=C(C(=O)Nc2cc(C(=O)O)ccc2Cl)C(c2ccccc2Cl)N=C(Nc2nc3ccc(F)cc3o2)N1 (centres undefined)
5. CC1=C(C(=O)Nc2cccc(CCO)c2)C(c2ccccc2Cl)N=C(Nc2nc3ccccc3o2)N1 (centres undefined)

Out:
["> 30 min", "13.8 min", "> 30 min", "> 30 min", "26.6 min"]

* * *

Record form. Attribute: solubility kinetic. Fill in for each entry.
Assay: Kinetic aqueous solubility of the compound
Assay type: physicochemical
Settings: buffer; read-out: Kinetic_solubility

These recorded examples may help you get a feel for the data.
COC(=O)c1ccnc(NC(=O)C2=C(C)NC(Nc3nc4ccccc4o3)=N[C@H]2c2ccccc2Cl)c1 = < 1 µg/mL
CC1=C(C(=O)Nc2cc(C(=O)O)ccn2)C(c2ccccc2Cl)N=C(Nc2nc3ccccc3o2)N1C (stereo not drawn) = > 76 µg/mL
O=C1CC(C(=O)O)CC2=C1C(c1ccccc1Cl)N=C(Nc1nc3ccccc3o1)N2 (stereo not drawn) = 52.6 µg/mL
CC1=C(C(=O)Nc2cncc(C(=O)O)c2)C(c2ccccc2Cl)N=C(Nc2nc3ccccc3o2)N1 (stereo not drawn) = 60.3 µg/mL
COc1ccc([C@H]2N=C(Nc3nc4cccc(N)c4o3)NC(C)=C2C(=O)Nc2cc(C(=O)O)ccn2)c(Cl)c1 = > 81 µg/mL

Hi there! I need solubility kinetic for each item below, if you can.
1. COCC1=C(C(=O)Nc2nncs2)C(c2ccccc2Cl)N=C(Nc2nc3ccccc3o2)N1 (stereo not drawn)
2. CC1=C(C(=O)NCc2cnn(C)c2)C(c2ccc(F)cc2Cl)N=C(Nc2nc3cccc(N)c3o2)N1 (stereo not drawn)
3. CC1=C(C(=O)Nc2cc(C(=O)O)ccn2)C(c2cccc(C(N)=O)c2)N=C(Nc2nc3ccc(F)cc3o2)N1 (stereo not drawn)
4. CC(C)C1=C(C(=O)Nc2nncs2)C(c2ccccc2Cl)N=C(Nc2nc3ccccc3o2)N1 (stereo not drawn)

Out:
1. < 1 µg/mL
2. 49.6 µg/mL
3. > 78 µg/mL
4. < 1 µg/mL

Hi there! I need solubility kinetic for each item below, if you can.
1. CC1=C(C(=O)NCc2ccc(CO)cc2)C(c2ccccc2Cl)N=C(Nc2nc3ccccc3o2)N1 (stereo not drawn)
2. COc1ccc2nc(NC3=NC(c4ccccc4Cl)C(C(=O)Nc4cc(C(=O)O)ccn4)=C(C)N3)oc2c1 (stereo not drawn)
3. CC1=C(C(=O)Nc2nnc(-c3cccnc3)s2)C(c2ccccc2Cl)N=C(Nc2nc3ccc(Cl)cc3o2)N1 (stereo not drawn)
4. COC(=O)c1csc(NC(=O)C2=C(C)NC(Nc3nc4ccccc4o3)=NC2c2ccccc2Cl)n1 (stereo not drawn)

Out:
< 1 µg/mL
> 79 µg/mL
< 1 µg/mL
< 1 µg/mL

* * *

Experiment: Kinetic aqueous solubility of the compound
Assay type: physicochemical
Details: buffer; read-out: Kinetic_solubility
reported-metric: solubility kinetic

These recorded examples may help you get a feel for the data.
CC1=C(C(=O)Nc2cccnc2)C(c2ccccc2Cl)N=C(Nc2nc3ccccc3o2)N1 (stereo not given) = < 1 µg/mL
COc1ccccc1CNC(=O)C1=C(C)NC(Nc2nc3ccccc3o2)=NC1c1ccccc1Cl (stereo not given) = < 1 µg/mL
CC1=C(C(=O)Nc2nncs2)C2(CCCC2)N=C(Nc2nc3ccccc3o2)N1 = < 1 µg/mL
CC1=C(C(=O)Nc2ncc(C(=O)O)s2)C(c2ccccc2Cl)N=C(Nc2nc3ccccc3o2)N1 (stereo not given) = > 75 µg/mL

Hi there! I need solubility kinetic for each item below, if you can.
1. CC1=C(C(=O)NCc2cnn(C)c2)C(c2ccc(C)cc2Cl)N=C(Nc2nc3cnccc3o2)N1 (stereo not given)
2. CCOC(=O)C1=C(C)NC(Nc2nc3ccccc3o2)=NC1c1ccccc1Cl (stereo not given)
3. CC1=C(C(=O)Nc2ccc(CN3CCOCC3)cc2)C(c2ccccc2Cl)N=C(Nc2nc3ccccc3o2)N1 (stereo not given)
4. CCn1cc(CNC(=O)C2=C(C)NC(Nc3nc4ccc(F)cc4o3)=NC2c2ccc(C)cc2Cl)cn1 (stereo not given)
5. CC1=C(C(=O)Nc2cc(C(=O)O)ccn2)C(c2cccc(S(N)(=O)=O)c2)N=C(Nc2nc3ccc(F)cc3o2)N1 (stereo not given)
6. CC1=C(C(=O)Nc2ccc(CO)nc2)C(c2ccccc2Cl)N=C(Nc2nc3ccccc3o2)N1 (stereo not given)

Out:
1: > 49 µg/mL; 2: < 1 µg/mL; 3: < 1 µg/mL; 4: < 1 µg/mL; 5: > 84 µg/mL; 6: < 1 µg/mL

* * *

Test: Stability of compound in rat microsomes assessed as half-life
Type: ADME, Microsome
Rule for this label: label 1 means half-life is less than 6 min; label 0 means half-life is at least 6 min.

Worked set:
CC1=C(C(=O)Nc2cc(C(=O)O)ccn2)C(c2ccc(C)cc2Cl)N=C(Nc2nc3cccnc3o2)N1 (configuration not stated) = label 0
COC(=O)c1csc(NC(=O)C2=C(C)NC(Nc3nc4ccccc4o3)=NC2c2ccccc2Cl)n1 (configuration not stated) = label 0
CC1=C(C(=O)Nc2nncs2)C(c2n[nH]cc2Cl)N=C(Nc2nc3ccccc3o2)N1 (configuration not stated) = label 0

In: Identify whether the compound CC1=C(C(=O)Nc2cc(C(=O)O)ccn2)C(c2ccc(-c3ccc(C(F)(F)F)nc3)cc2Cl)N=C(Nc2nc3ccc(F)cc3o2)N1 (configuration not stated) records half-life below 6 min.
Out: label 0

In: Identify whether the compound `CC1=C(C(=O)Nc2cc(C(=O)O)ccn2)[C@@H](c2ccccc2Cl)N=C(Nc2nc3cccc(N)c3o2)N1` records half-life below 6 min.
Out: label 0

* * *

Assay: Stability of compound in rat microsomes assessed as half-life
Assay type: ADME, Microsome
reported-metric: half-life

These recorded examples may help you get a feel for the data.
CC1=C(C(=O)Nc2cc(C(=O)O)ccn2)C(c2ccccc2Cl)N=C(Nc2nc3cccc(F)c3o2)N1 (stereo not drawn) = > 30 min
CC1=C(C(=O)Nc2nncs2)C(c2n[nH]cc2Br)N=C(Nc2nc3ccccc3o2)N1 (stereo not drawn) = > 30 min

Next:
In: Record request: half-life value, item CC1=C(C(=O)Nc2cc(C(=O)O)ccn2)C(c2cccc(C(F)(F)F)c2)N=C(Nc2nc3ccc(F)cc3o2)N1 (stereo not drawn)
Out: > 30 min
